B1: PhoQ; a variant is named by its letters at X, in order, P23837 (parent)
chain: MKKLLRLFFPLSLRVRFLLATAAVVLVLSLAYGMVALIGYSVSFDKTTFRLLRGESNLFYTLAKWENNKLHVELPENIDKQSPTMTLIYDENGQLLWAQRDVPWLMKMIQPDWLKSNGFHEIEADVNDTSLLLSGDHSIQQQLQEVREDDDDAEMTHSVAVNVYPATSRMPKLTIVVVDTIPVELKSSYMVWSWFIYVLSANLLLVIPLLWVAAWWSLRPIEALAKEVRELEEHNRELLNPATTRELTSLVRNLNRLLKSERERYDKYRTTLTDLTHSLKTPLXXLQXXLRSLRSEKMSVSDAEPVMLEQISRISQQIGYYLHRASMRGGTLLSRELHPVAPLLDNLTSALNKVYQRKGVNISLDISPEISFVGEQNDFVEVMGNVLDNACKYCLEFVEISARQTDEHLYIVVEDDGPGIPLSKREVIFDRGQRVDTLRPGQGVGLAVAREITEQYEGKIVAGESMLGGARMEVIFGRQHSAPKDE

- Variants of: B1
- experiment_notes: enrichment ratio after two sorts for PhoP signalling (ratio (wild type AVST 3.29)); higher = more functional
- test_conditions: with PhoP (E. coli)
Whole data set: some 140,000 sequences, median “enrichment ratio after two sorts for PhoP signalling” near 0, cut for the highest 2% near 11. The list comes from a sample in which the highest values are over-represented; it also holds close analogues and randomly drawn sequences.
Give measured enrichment ratio for each item. Keep answers brief.

State recorded enrichment ratio for all listed variants.
1. HYLI
2. TISA
3. WISS
4. GVLA
5. HGCS
6. HGCK
7. GVLI

### Response
1. ≤ 0.25
2. 10.6
3. ≤ 0.25
4. 4.95
5. ≤ 0.25
6. ≤ 0.25
7. 15.6

I'm hoping you can list enrichment ratio for every variant here, please.
1. IDKS
2. AGNI
3. EFKF
4. HGDK
5. EYMP
6. GILI

### Response
1: ≤ 0.25; 2: ≤ 0.25; 3: ≤ 0.25; 4: ≤ 0.25; 5: ≤ 0.25; 6: 8.37

Below are 2 variants. Give each one its enrichment ratio.
1. HGLI
2. RINN

### Response
1: 13.3; 2: ≤ 0.25

For each entry beneath this line, provide reported enrichment ratio.
1. TIEG
2. TIMG

### Response
11.8
3.15

// for each variant in input: emit enrichment ratio
1. GWTL
2. PSEG
3. QTDQ

### Response
1. ≤ 0.25
2. ≤ 0.25
3. ≤ 0.25

For each of the variants below, note its enrichment ratio.
1. TINN
2. NVLI

### Response
1. 12.6
2. ≤ 0.25

The values you see were collected from a collection of fitness landscapes (doi:10.1126/science.1257360).
